SYSTEM NAME: tyrosinase
METHOD NOTES: Determination of the activity of compounds inhibiting tyrosinase (L-tyrosine substrate, absorbance at 475 nm)
RUN CONDITIONS: L-tyrosine 0.1 mg/mL, tyrosinase 48 U/mL, pH 6.8, 37° C. 30 min, n = 3; read-out: IC50 ± SEM (tyrosinase inhibition)
ASSAY ENDPOINT: pIC50
Give bare numbers, as −log10 of the molar value.

- Cc1cc(=O)c2c(C)cc(O)cc2o1: 2.03

Would you be so kind as to report pIC50 for each listed record?
1. CCCc1cc(=O)c2c(C)cc(OC)cc2o1
2. Cc1cc(O)cc2oc(C(C)(C)C)cc(=O)c12

OUTPUT:
3.70
2.27
